Readout: melting point

1) O=C(O)c1cn(Cc2ccc(OCc3ccccc3)cc2)nc1-c1ccccc1	152 to 153 °C
2) CNC(=S)N1CC(Oc2cccc(C(F)(F)F)c2)C1	79 to 86 °C
3) c1ccc2c(c1)C[C@@H]1c3ccccc3N[C@H]21 (relative stereo)	107 °C
4) CCCCCCCCC1C=CC(/C=C/c2ccc(C(=O)O)o2)=C2N=C3C(=C21)CC(C)(C)CC3(C)C (stereo not given)	156 to 158 °C
5) CCNC(=O)c1ccccc1Nc1nc(Nc2cc3c(cc2OC)CCN(CC(=O)N(C)C)CC3)ncc1Cl	99 to 111 °C
6) C=C(C)C(=O)NNc1ccnc2c(NC(=O)c3c(Cl)cccc3Cl)cccc12	277 to 280 °C
7) CCCCCCCCCCCCOc1ccc(-c2cc3ccccc3[nH]2)cc1OC	104 °C
8) CN(C)Cc1c[nH]c2ccc(Br)cc12	139 °C
9) Nc1ccc(C(=O)NCCNC(=O)c2ccc(N)cc2)cc1	294 to 295 °C
10) ClCc1ccc(OCc2coc(-c3ccccc3)n2)cc1	129 to 130 °C

* * *

Readout: melting point

1. CCCc1nn(C)c2c(=O)n(CCOc3ccc(CC(OCC)C(=O)O)cc3)c(CC)nc12 (single isomer, unassigned; (+))	144 to 145 °C
2. CCc1cnc(C2=NC(C)(C(C)C)C(=O)N2)c(C(=O)NCCCC(=O)O)c1 (centres undefined)	165 to 167 °C
3. CN1CC(CCN2CCOCC2)c2nc3ccccc3n2C1=O (centres undefined)	111 to 112 °C
4. CCCOCCOc1ccc(-c2ccc3c(c2)C=C(C(=O)Nc2ccc(CN(C)C4CCOCC4)cc2)CCS3(=O)=O)cc1Cl	183 to 184 °C
5. CCC(COC)c1ccc(Cl)c2nc3n(c12)CCCN3c1ccc(Cl)cc1Cl (centres undefined)	130 to 131 °C
6. NNC(=O)NC(c1cccc(Cl)c1)c1ccnc2ccccc12 (centres undefined)	187 °C
7. CCOC(=O)c1nc(CCl)n(-c2ccc(Br)cc2C(=O)c2ccccn2)n1	96 to 97 °C
8. CCC(C(=O)Nc1c(C)cccc1C)N(C)C (centres undefined)	155 to 157 °C
9. Cc1cc(Nc2ccc(Cl)cc2)nc(-n2cc3ccccc3n2)n1	225 to 227 °C

* * *

Readout: melting point

1. CCCCC(=O)Nc1ccc(Cl)c(-n2nc(CCCC)c(Cc3ccc(-c4ccccc4S(=O)(=O)NC(=O)c4ccccc4Cl)cc3)c2C(=O)O)c1	> 110 °C
2. O/N=C1\CCCc2c1c1ccccc1n2-c1ccc(OCc2ccccc2)cc1	241 to 243 °C
3. O=C1c2ccccc2C(=O)N1CCCCOc1cccc2c1SCCC2	116 °C
4. Cc1c2c(nc3ccccc13)CCN(S(=O)(=O)c1ccc(Cl)cc1)CC2	189 °C
5. CCCCC1=CC(O)(C(Br)Br)N(Cc2ccccc2)C1=O (stereo not given)	92 to 93 °C
6. Cc1nc(-c2ccccc2)c(-c2ccccc2)n1CCCCCCNC(=O)Oc1ccccc1F	129 to 131 °C
7. OC1(c2cccn2Cc2ccccc2F)CCN(Cc2ccccc2)CC1	112 to 117 °C
8. Cc1nc2scc(C)n2c(=O)c1CCN1CCC(C2(c3ccc(F)cc3)OCCO2)CC1	140 °C
9. CC(C)N(C(N)=O)c1ccc2c(c1)OCO2	116 to 119 °C
10. CCCOc1ccc(C2=NN(C(=O)Nc3ccc(C(F)(F)F)cc3)CC2(C)C(=O)OC)cc1 (stereo not given)	134 to 137 °C

* * *

This section presents molecules with their documented melting point values.
Readout: melting point (°C)

1) COc1ccccc1N1CCN(CCCNC(=O)c2cccc3c(=O)c(C)c(C4CCC(C)CC4)oc23)CC1 (centres undefined)	166
2) Cc1cccc(NC(=O)NCC(=O)N(CC(=O)OC(C)(C)C)c2ccc(Cl)cc2)c1	125
3) Nc1ccccc1C(=O)COC(=O)c1ccccc1	125
4) O=C(c1cccc(NC(=O)c2ccn3c2CSC3c2cccnc2)c1)c1ccccn1 (centres undefined)	165
5) CC(C)CCCC(C)C1CCC2C3CC(Br)=C4CC(O)CCC4(C)C3CCC12C (centres undefined)	155

* * *

This section presents compounds with their documented melting point values.
Readout: melting point

1) Nc1sc2c(c1C(=O)c1ccsc1)CCN(Cc1ccccc1)C2	131 to 133 °C
2) CC(C)(C)c1cc(NC(=O)c2cccn2-c2ccc(N)cc2)cc(C(C)(C)C)c1O	218 to 219 °C
3) CCCc1c2oc(C(N)=O)cc(=O)c2cc2c(=O)cc(C(=O)OCC)oc12	229 to 231 °C
4) O=C1C(=NO)SCCN1Cc1ccccc1	225 to 227 °C
5) CS(=O)(=O)c1ccc(-c2cnn(-c3cccc(Cl)c3)c(=O)c2Oc2ccccc2)cc1	205 to 207 °C
6) O=C(Cc1ccc(Cl)cc1)OC(c1ccccc1)c1ccccc1	107 to 108 °C
7) CCOC(=O)c1ccc(-c2ccc(OCCCCCCCCCCCCOC(C)=O)cc2)cc1	80.1 to 81.5 °C
8) CONC(=O)Nc1ccc(-c2sc3c(c2CN(C)C(C)c2ccccc2)c(=O)n(-c2ccccc2)c(=O)n3Cc2c(F)cccc2F)cc1 (stereo not given)	191 to 192 °C
9) O=C(O)Cn1c(Cc2ccccc2)ccc(NC(=O)CCc2ccccc2)c1=O	214 to 216 °C
10) O=C(CC(O)(c1cc(Cl)cc(Cl)c1)C(F)(F)F)c1ccc(F)c(Br)c1 (stereo not given)	134 to 135 °C
11) O=S(=O)(CC(Cl)(c1ccccc1)c1cc(Cl)ccc1Cl)CC(Cl)(c1ccccc1)c1cc(Cl)ccc1Cl (stereo not given)	136 °C
12) COc1ccc(C(=O)CSc2cccc(OC)c2)cc1	53 to 54 °C
13) Nc1ccc(S(=O)c2ccc(-c3ccc(Br)cc3)cc2)cc1N (stereo not given)	161 to 164 °C
14) COc1ccccc1OC(c1ccccc1)C(O)CN (stereo not given)	80 to 110 °C
15) CCCC(=O)/C=C/c1cn(-c2ccccc2)nc1OCc1ccc(OCc2nc(-c3ccco3)oc2C)c(OC)c1	167 to 168 °C
16) CC(NC(=O)c1cc(Cl)ccc1NC(=O)C1CC(O)=NN1c1ncccc1Cl)C1CC1 (stereo not given)	165 to 167 °C
17) CC(C)(CCCCCCCCCCCC(C)(C)C(=O)O)C(=O)O	95 to 96 °C
18) Cc1cc(=O)c(C(=O)O)c(C)o1	98 °C
19) O=C(O)c1ccc(-c2ccc(I)c(O)c2)cc1	174 °C
20) COC(=O)c1ccccc1OCCN1CCC(c2c[nH]c3ccccc23)CC1	124 to 125 °C

* * *

Readout: melting point

1) O=c1c(-c2cccc(C(F)(F)F)c2)c(Cl)cnn1-c1ccc(F)cc1	88 to 90 °C
2) C#CCOC(=O)c1ccc(OCCC2CCN(c3ccc(Cl)nn3)CC2)cc1	122 °C
3) CCCc1c(S(=O)(=O)CCCOc2ccc(C(C)=O)c(OCCCC(=O)OCC)c2CCC)ccc(C(C)=O)c1O	77 to 79 °C
4) ClCc1ccnc(OCc2cn3c(Cl)cccc3n2)c1	118 to 119 °C
5) N#Cc1cn(-c2ccc([N+](=O)[O-])cc2)nc1[N+](=O)[O-]	172 to 175 °C
6) COc1ccc(-c2ccc(C(=O)N3Cc4cccn4Cc4ccccc43)cc2)cc1	187 to 189 °C
7) O=Cc1ccc2cc3c(cc2c1)sc1ccccc13	182 to 185 °C
8) CCOC(=O)c1[nH]c2cc3[nH]c(C)c(C(=O)OC)c3c(C)c2c1C	247 to 250 °C
9) CCN(CCO)c1ccc(I)cc1	53 to 54 °C
10) Cc1cc(S(=O)(=O)O)ccc1OCc1ccccc1C(=O)O	242 to 244 °C

* * *

Readout: melting point

1. COC(CN1CCN(c2ccc(F)cc2)CC1)CN1c2cccc3cccc(c23)S1(=O)=O (stereo not given)	128 °C
2. COc1ccc(Cn2nc(-c3ccc(SC)cc3)c(-c3ccc(F)cc3)cc2=S)cc1	113 °C
3. CN1C(=O)N(c2cc(Cl)cc(Cl)c2)C(=O)[C@]12CN(CC(=O)O)C[C@H]2c1ccc(C#N)cc1 (relative stereo)	220 °C
4. O=C(O)c1ccc(-c2cnc3c(c2)N(Cc2ccccc2)CCN3)cc1	> 300 °C
5. O=c1[nH]c2nc(Cl)nc(Cl)c2s1	191 to 192 °C
6. COC(=O)c1c(CC#N)ncn1C1OC(COC(C)=O)C(OC(C)=O)C1OC(C)=O (stereo not given)	92 to 93 °C
7. Cc1nc(N)c2nc(CO)n(NCc3ccccc3)c2c1C	> 250 °C
8. CCCCOC(=O)NC1(c2ccccc2Cl)CCCCC1=O (stereo not given)	130 to 132 °C
9. CSCOc1cc(Cl)ccc1C=O	67 to 68 °C
10. CC(C)(C)c1cc(C(=O)Nc2cccc(OCc3cccnc3)c2)ccc1O	104 to 107 °C
11. NC(=O)NCc1ccc(CNC(=O)[C@@H](CCCNC(N)=N[N+](=O)[O-])NC(=O)OCc2ccc3ccccc3c2)cc1	155 to 160 °C
12. COc1cc(N)c(Cl)cc1C(=O)NC1CCN(CCn2c(=O)[nH]c3ccccc3c2=O)CC1OC (stereo not given)	271 °C
13. CNC(=O)N1CCC(C(c2ccc(F)cc2)N(Cc2ccc(F)cc2)C(=O)NC)CC1 (stereo not given)	120 to 162 °C
14. O=C1COc2ccc3ccccc3c21	194 to 196 °C
15. CCOc1nc2c(cc1C)C(=O)c1ccccc1C2=O	186 to 188 °C
16. CN1CC(CCCl)Oc2ccc(Cl)cc2C1=S (stereo not given)	102 to 104 °C
17. COC(=O)[C@@H]1C(=O)N(C)c2ccccc2C[C@H]1c1ccc2c(c1)OCO2 (racemic)	125 to 127 °C
18. CN1CCc2cc(-c3ccc4c(c3)CCN(CCN3CCCC3)C4=O)ccc2C1=O	225 to 226 °C
19. COc1ccc(-c2cc(C(F)(F)F)nn2-c2ccc(S(N)(=O)=O)c(F)c2)cc1	130 to 131 °C
20. Cc1ccccc1C(=O)c1ccc(Nc2ccccc2NS(=O)(=O)c2ccccc2)cc1Cl	211 to 215 °C
